- Subject of test: Tyrosine-protein phosphatase non-receptor type 1 (Homo sapiens)
- Sequence (P18031 whole entry): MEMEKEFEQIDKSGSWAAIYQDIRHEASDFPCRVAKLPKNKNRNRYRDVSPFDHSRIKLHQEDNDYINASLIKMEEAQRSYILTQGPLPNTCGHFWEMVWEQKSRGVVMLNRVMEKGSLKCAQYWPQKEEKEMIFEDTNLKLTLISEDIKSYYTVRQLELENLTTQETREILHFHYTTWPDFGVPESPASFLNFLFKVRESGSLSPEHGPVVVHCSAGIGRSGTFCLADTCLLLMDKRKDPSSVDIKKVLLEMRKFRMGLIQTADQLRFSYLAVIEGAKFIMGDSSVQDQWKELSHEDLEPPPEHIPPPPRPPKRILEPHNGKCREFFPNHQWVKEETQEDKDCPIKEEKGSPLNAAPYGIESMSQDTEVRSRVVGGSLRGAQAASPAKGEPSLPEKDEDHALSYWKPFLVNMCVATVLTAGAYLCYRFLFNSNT
- Assay protocol: Inhibition of PTP1B (unknown origin) expressed in Escherichia coli cells assessed as p-nitrophenyl phosphate hydrolysis by spectrophotometric analysis

{"Record smiles": "O=C(Cn1cc(-c2c(-c3ccccc3)oc3cc(O)c(C(=O)O)cc23)nn1)Nc1ccc(N2CCOCC2)cc1", "IC50": "19 µM"}

Where do the numbers come from? From ChEMBL document CHEMBL3217656.
